Molecular target: H^+ / K^+ ATPase isolated from canine gastric mucosa (Canis lupus familiaris)
Construct: ATPase isolated from canine gastric mucosa
Sequence (P50996 2-1034 limits assumed): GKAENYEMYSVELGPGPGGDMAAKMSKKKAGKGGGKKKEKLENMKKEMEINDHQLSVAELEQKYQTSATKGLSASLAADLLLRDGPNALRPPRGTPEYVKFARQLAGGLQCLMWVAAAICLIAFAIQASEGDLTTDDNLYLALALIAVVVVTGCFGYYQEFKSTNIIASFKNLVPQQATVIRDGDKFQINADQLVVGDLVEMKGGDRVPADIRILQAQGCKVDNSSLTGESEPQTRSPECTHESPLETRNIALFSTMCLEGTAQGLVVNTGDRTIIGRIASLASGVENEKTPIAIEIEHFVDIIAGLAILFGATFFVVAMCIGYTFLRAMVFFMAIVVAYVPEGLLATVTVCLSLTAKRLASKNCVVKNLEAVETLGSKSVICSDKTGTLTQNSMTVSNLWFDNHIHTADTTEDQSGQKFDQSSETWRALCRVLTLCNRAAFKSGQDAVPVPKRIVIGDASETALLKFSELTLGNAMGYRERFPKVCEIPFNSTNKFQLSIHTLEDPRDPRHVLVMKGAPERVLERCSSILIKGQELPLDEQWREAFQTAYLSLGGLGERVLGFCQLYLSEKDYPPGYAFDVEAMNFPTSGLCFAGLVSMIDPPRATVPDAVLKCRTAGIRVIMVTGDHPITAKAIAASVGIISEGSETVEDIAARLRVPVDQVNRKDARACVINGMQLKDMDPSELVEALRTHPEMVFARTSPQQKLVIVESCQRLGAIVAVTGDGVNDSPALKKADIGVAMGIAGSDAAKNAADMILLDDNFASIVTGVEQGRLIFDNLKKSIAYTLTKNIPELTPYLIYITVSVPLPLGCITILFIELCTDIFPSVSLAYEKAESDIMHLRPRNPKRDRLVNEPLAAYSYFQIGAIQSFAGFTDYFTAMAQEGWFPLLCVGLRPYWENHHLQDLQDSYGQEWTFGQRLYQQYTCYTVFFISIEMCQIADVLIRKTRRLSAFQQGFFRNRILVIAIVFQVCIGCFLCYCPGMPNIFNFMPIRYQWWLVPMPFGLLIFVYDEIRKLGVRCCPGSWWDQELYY
Sequence (P33704 whole entry partner): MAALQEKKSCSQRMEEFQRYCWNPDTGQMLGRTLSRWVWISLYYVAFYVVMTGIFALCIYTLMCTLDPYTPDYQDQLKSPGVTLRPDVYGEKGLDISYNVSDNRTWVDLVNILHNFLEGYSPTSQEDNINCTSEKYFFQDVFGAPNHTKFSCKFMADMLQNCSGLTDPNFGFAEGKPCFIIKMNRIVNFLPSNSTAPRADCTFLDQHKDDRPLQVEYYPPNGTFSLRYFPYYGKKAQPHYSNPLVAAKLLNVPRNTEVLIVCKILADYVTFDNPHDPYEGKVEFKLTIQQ
Test: Inhibition of H+/K+ ATPase isolated from canine gastric mucosa
Conditions: preincubated 45 minutes at 37° C., pH 7.5, drugs preferably acid activated in 1:1 dimethylsulfoxide:0.02N HCl, 30 minutes, read-out: IC50 (the concentration which inhibits the enzyme to the extent of 50%)
Experimental: The utility of the present compounds as antiulcer agents is reflected in vitro by their inhibition of H^+ / K^+ ATPase isolated from canine gastric mucosa. The enzyme activity was assayed according to Beil et al., Brit. J. Pharmacol. 82, 651-657 (1984) with slight modifications. […] Liberated inorganic phosphate was determined using Fiske and Subbarow Reducer available commercially (e.g., from Sigma Chemical Co., P.O. Box 14508, St. Louis, Mo. 63178, U.S.A.). […]
Where a name gives a salt, the structure may show the parent alone.
# maps each entry to its IC50
// units = µM; emit number, no label

These solved cases illustrate the format of a correct answer.
[[record]]
compound = "N=C(NCc1ccccc1)Nc1nc(-c2c[nH]c3ccc(Cl)cc23)cs1"
readout_type = "IC50"
result = 0.6

[[record]]
compound = "Cc1cc(-c2csc(NC(=N)N)n2)c[nH]1"
readout_type = "IC50"
result = 15

[[record]]
compound = "N=C(NCc1ccccc1)Nc1nc(-c2c[nH]c3ccccc23)cs1 [Hydrochloride]"
readout_type = "IC50"
result = 2


Now for another entry.
Under H^+ / K^+ ATPase isolated from canine gastric mucosa (Canis lupus familiaris): report IC50 of COc1cccc(-c2csc(NC(=N)NCc3ccccc3)n2)c1 .
10

// provenance: patent US5026715A
